# reported GI50; entries follow
Test system: NCI/ADR-RES
Assay Method Text: NCI tumour cell line growth inhibition, 48 h
Active and inactive are the calls of the source. No stated cut-off is given here; in the data, active = GI50 up to about 1.1 µM and inactive = higher.

The cases that follow already have their GI50 on record.
Compound	Experimental Value
COc1ccc(C2=Nc3cc(C)c(C)cc3NC(c3ccccc3)C2)cc1 (stereo unspecified)	43.4 µM (inactive)
SC1=NNC2(C(S)=N1)c1ccccc1-c1ccccc12	> 10 µM (inactive)
C[N+](C)(N)Cc1nc(-c2ccc(Cl)cc2)no1	> 100 µM (inactive)
NC1=NCCN1CC(=O)O	> 1000 µM (inactive)
CCOC(=O)/C(C[C@H]1OC(C)(C)O[C@@H]1[C@H]1COC(C)(C)O1)=N/O	> 100 µM (inactive)

Consider now this further compound.
Lookup result for CCCCOc1ccc(S(=O)(=O)/N=C(\NN)Nc2ccc(Cl)cc2)cc1 ; measured GI50: 24.5 µM (inactive)

---

Test system: HOP-18
Assay Method Text: NCI tumour cell line growth inhibition, 48 h
Activity calls are given as the source filed them. No stated cut-off is given here; in the data, active = GI50 up to about 1.1 µM and inactive = higher.
Return exactly one item of active, inactive

Previously resolved entries follow.
Compound	System Tested	Discrete Label
CC(C)N(C(C)C)P(OCCC#N)OC1CC(n2cnc3c(=O)[nH]cnc32)OC1COC(=O)NCCCCCCNC(=O)OC(C)(C)c1ccc(-c2ccccc2)cc1 (centres undefined)	HOP-18	inactive
Nc1ccccc1C(=O)C(Br)C(Br)c1ccc2c(c1)OCO2 (centres undefined)	HOP-18	inactive
COC(=O)C(=Cc1cc(OC)c(OC)c(OC)c1-c1cc2c(cc1C(C)=O)OCO2)C(=O)OC	HOP-18	inactive
C/C1=N\[N-]C(=O)c2ccccc2C(=O)N/N=C(\C)c2cccc1n2.O=[N+]([O-])[O-].[Zn+2]	HOP-18	inactive
NS(=O)(=O)OCCCCCCCOS(N)(=O)=O	HOP-18	inactive
O=C1c2c(O)cccc2C(C(=O)CCCC(=O)C2c3cccc(O)c3C(=O)c3c(O)cccc32)c2cccc(O)c21	HOP-18	active
CCOc1ccc(/C=C(\Cl)c2ccc(OC)c(OC)c2)cc1	HOP-18	inactive
[O-][n+]1c2cc(CBr)c(CBr)cc2[n+]([O-])c2c(O)cccc21	HOP-18	inactive

Shift focus to the following entry.
Q: Could you check what this test reported for COc1ccc(/C=C/C(=O)c2sc(-n3nc(-c4ccccc4)cc3-c3ccccc3)nc2C)cc1OC ?
Ans: inactive

---

System: SK-OV-3
Assay Method Text: NCI tumour cell line growth inhibition, 48 h
Active and inactive are the calls of the source. No stated cut-off is given here; in the data, active = GI50 up to about 1.1 µM and inactive = higher.
Reported Metric: GI50

Compound	GI50
COc1cc(/C=C(\C#N)C(=O)c2ccccc2)ccc1O	> 100 µM (inactive)

For this compound ( CC(O)=C1C(=O)CCC1=O ), measured GI50 is > 100 µM (inactive)

Query COc1ccc2cc(/C=N\NC(=O)Nc3ccc([N+](=O)[O-])cc3)ccc2c1 yields GI50 of 11.9 µM (inactive)

The compound identified as O=c1c2ccccc2oc2c1ccc1ncccc12 registered its GI50 at 6.38 µM (inactive)

According to the records, this compound COc1ccc([S+]([O-])Cc2cc(OC)ccc2OC)cc1 (stereo not drawn) displays GI50 of > 100 µM (inactive)

// field: GI50; key: N#Cc1c(-c2ccc(Cl)cc2)cc(-c2ccc(Nc3ccnc4cc(Cl)ccc34)cc2)nc1N ; value = > 100 µM (inactive)

get_value(item= CC1=CC(=O)C(=CN2C(=O)/C(=C\c3cccnc3)NC2=S)C(=O)O1 , readout=GI50) returns > 100 µM (inactive)

For record COCC1N=C(c2cc(OC)c(OC)c(OC)c2-c2cc3c(cc2[C@H](C)O)OCO3)O[C@H]1c1ccccc1 (stereo partly drawn) the listed GI50 is > 100 µM (inactive)

Field GI50 (entry O=C1N=C2Sc3ccc4ccccc4c3N2C1=O ) reads 15.5 µM (inactive)

Value of measured GI50 for the entry NC(=O)N/N=C/C(/C=N/NC(N)=O)[N+](=O)[O-] : > 100 µM (inactive)

Lab book: GI50 of CCOC(=O)C(NC(=O)CC)(Nc1ccccc1F)C(F)(F)F (stereo not drawn) noted as > 100 µM (inactive)

The reported GI50 of the compound CCCCCCCCCCCCCC1=C(O)C(=O)C(CC2=C(O)C(=O)C(CCCCCCCCCCCCC)=C(O)C2=O)=C(O)C1=O was 44.7 µM (inactive)

For reference, reported GI50 for C=C1CC2(CCOc3ccc(Cl)cc32)OC1=O (stereo not drawn) stands at 13.1 µM (inactive)

---

Below, each entry is listed alongside its reported GI50.
System: M14
Assay Method Text: NCI tumour cell line growth inhibition, 48 h
Active and inactive are the calls of the source. Rule as the data show it: active = GI50 up to about 1.1 µM and inactive = higher.

Recorded results for 3 compounds are shown here.
Compound	GI50
Cc1nc2ccccc2n1Cc1ccc(NC(=S)NC2CCCCC2)cc1	30.1 µM (inactive)
O=Cc1c2c(cc3c1CC1(C3)Cc3cc4c(c(C=O)c3C1)CCCC4)CCCC2	> 31.6 µM (inactive)
C(=N\c1cc2cc(Sc3ccccc3)ccc2[nH]1)/c1ccccc1	> 12.5 µM (inactive)

Could you now consider this next compound?
Entry Nn1c(Nc2ccc(S(=O)(=O)Nc3ncccn3)cc2)nnc(/C=C/c2c(O)ccc3ccccc23)c1=O , tested on M14, has a reported GI50 of 29 µM (inactive)

---

Test system: SW-620
Assay Method Text: NCI tumour cell line growth inhibition, 48 h
The source made the active and inactive calls. Cut-off read from the data, not from the text of the source: active = GI50 up to about 1.1 µM and inactive = higher.
Reported Metric: GI50

Below: 3 compounds and their reported GI50.
Compound	Experimental Value
[N-]=[N+]=NC1=C(C(=O)c2ccccc2)C(=O)c2cccc3cccc1c23	> 100 µM (inactive)
N#CCCN(CCC#N)c1ccc(/C=C(/NC(=O)c2cc([N+](=O)[O-])ccc2Cl)C(=O)N=[N+]=[N-])cc1	> 100 µM (inactive)
O=C(NC1CCC(=O)N1C(=O)OCc1ccccc1)OCc1ccccc1 (stereo unspecified)	> 100 µM (inactive)

In plain terms, C1=N\c2ccc(cc2)/N=C\c2ccc(cc2)OCc2cccc(n2)COc2ccc/1cc2 has a documented GI50 of > 100 µM (inactive)

Query CCOn1cc(C[C@@]2(O)C(=O)OC3[C@@H](O)CO[C@@]32O)c2ccccc21 (stereo partly specified) yields GI50 of > 100 µM (inactive)

compound C1CNCCNCCN1 , GI50 observed: > 100 µM (inactive)

CCc1cc2c(c3c1CCCC3=O)CC1(C2)Cc2cc(CC)c3c(c2C1)C(=O)CCC3 has a reported GI50 of > 100 µM (inactive)

COC(=O)C(CCCCN)NC(=O)C(CCCCN)NC(C)=O.Cc1ccc(C(=O)Nc2ccc(S(=O)(=O)O)c3cc(S(=O)(=O)O)cc(S(=O)(=O)O)c23)cc1NC(=O)c1cccc(NC(=O)Nc2cccc(C(=O)Nc3cc(C(=O)Nc4ccc(S(=O)(=O)O)c5cc(S(=O)(=O)O)cc(S(=O)(=O)O)c45)ccc3C)c2)c1 has a reported GI50 of > 50 µM (inactive)

---

Tested on: SR
Assay Method Text: NCI tumour cell line growth inhibition, 48 h
The source made the active and inactive calls. Rule as the data show it: active = GI50 up to about 1.1 µM and inactive = higher.
In this exercise, the only acceptable responses are active, inactive

Here's what some known entries look like.
Compound	Discrete Label
N#CC(C#N)=C1c2ccccc2C(=NN)c2ccccc21	inactive
COc1ccc(NC(=O)CSC(=O)c2ccccc2)c(SCCSSCCSc2cc(OC)ccc2NC(=O)CSC(=O)c2ccccc2)c1	inactive
O=Cc1c2c(cc3c1CC1(C3)Cc3cc4c(c(C=O)c3C1)CCCC4)CCCC2	inactive
CCOC(=O)C1C(=O)c2cccc(OC)c2C2COC(=O)N12 (configuration not stated)	inactive
Cc1[nH]c(=O)nc(N/N=C/c2ccc(O)cc2)c1C(=O)Nc1ccc(Cl)cc1	inactive
COc1cc(-c2oc3c(OC)c(O)c(OC)c(O)c3c(=O)c2OC)ccc1O	inactive

Q: Hi, sorry to bother you, what did the test record for O=C1C(Cl)=C(Cl)C(=O)C(CCNc2nccs2)=C1Cl ?
Ans: inactive

Q: Hi, sorry to bother you, what did the test record for Nc1nc[n+](Cc2ccccc2)c2ncn(Cc3ccccc3)c12 ?
Ans: inactive

---

System: SNB-75
Assay Method Text: NCI tumour cell line growth inhibition, 48 h
Activity calls are given as the source filed them. No stated cut-off is given here; in the data, active = GI50 up to about 1.1 µM and inactive = higher.
# GI50 listing for each entry below

Example entries begin here.
Molecule	GI50
O=C1N=C2Sc3ccc4ccccc4c3N2C1=O	23.6 µM (inactive)
CCOc1cc(NC(C)=O)ccc1C(=O)NN1C(=O)C(Cl)C1c1ccccc1 (stereo unspecified)	15.6 µM (inactive)

So for C=CC1(CCC(Br)C(C)(C)Cl)CO1 (stereo unspecified) , the logged GI50 turned out to be > 10 µM (inactive)

molecule O=c1c2ccccc2oc2c1ccc1ncccc12 , GI50 observed: 21.3 µM (inactive)

// field: GI50; key: CNS(=O)(=O)c1ccc2c(c1)/C(=C1/Nc3ccccc3C1=O)C(=O)N2 ; value = > 100 µM (inactive)

So, O=c1c2cccnc2[nH]c2ccc3[nH]ncc3c12 ? Its GI50 was > 10 µM (inactive)

All figures here come from ChEMBL document CHEMBL1201862.
